- Target Desc: T1, Bio-P19 member A2E-3 (chain 2 carries a C-terminal BirA substrate peptide (BSP), enzymatically biotinylated; the BSP letters are not given in the patent and are left out)
- T1 construct: also called biotinylated control peptide A2E-3/HLA-A*02:01 monomer
- T1 sequence (beta, as listed by the source): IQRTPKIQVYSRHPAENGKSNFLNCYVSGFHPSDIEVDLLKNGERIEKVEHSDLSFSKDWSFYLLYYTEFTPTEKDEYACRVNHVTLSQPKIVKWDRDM
- Method Notes: phage ELISA, streptavidin plate, anti-M13-HRP

Binder | binding result
PSA146/HLA-A*02:01-specific scFv phage clone #9 (scFv, V domains shown) VH: QVQLVQSGAEVKKPGASVKVSCKASGYTFTSYGISWVRQAPGQGLEWMGWISAYNGNTNYAQKLQGRVTMTTDTSTSTAYMELRSLRSDDTAVYYCARSSQYYVWDSWGQGTLVTVSS VL: QSVVTQPPSVSGAPGQRVTISCTGSSSNFGAGYDVHWYQQLPGTAPKLLIYGNSNRPSGVPDRFSGSKSGTSASLAITGLQAEDEADYYCQSYDSSLSGWVFGGGTKLTVLG | no binding
PSA146/HLA-A*02:01-specific scFv phage clone #6 (scFv, V domains shown) VH: EVQLVQSGAEVKKPGASVKVSCKASGYTFTGYYIHWVRQAPGQGLEWMGGFDPEDGETIYAQKFQDRVTMTADTSTDTAYMELSSLRSEDTAVYYCARYGFDYWGQGTLVTVSS VL: QAVVTQEPSLTVSPGGTVTLTCASSTGAVTSGYYPNWFQLKPGQAPRALIYTTGKKHSWAPARFSGSLLGGKAALTLSGVQPEDEAEYYCLLYSGGVWVFGGGTKLTVLG | no binding

# credit: patent US20200087400A1
